- testName: Renal cytotoxicity against HK-2 cells incubated for 72 hrs by CCK8 assay
- Format: toxicity, cell-based
- measurementSetup: human
Bridge positions count the residues as written; N and C are the ends. Square brackets hold non-standard residues; d marks the D form. Peptide text beside a SMILES is read from it. * marks the point of attachment. Heptanoyl(6-Me) = CC(C)CCCCC(=O)*; dDab = NCC[C@@H](N)C(=O)O; Orn = NCCC[C@H](N)C(=O)O; Dab = NCC[C@H](N)C(=O)O
Form field: IC50 at 72 h (one value per entry).
observable: IC50 at 72 h

molecule: CC(C)CCCCC(=O)N[C@@H](CCN)C(=O)N[C@H](C(=O)N[C@H](CCN)C(=O)N[C@H]1CCNC(=O)[C@H]([C@@H](C)O)NC(=O)[C@H](CCN)NC(=O)[C@H](CCN)NC(=O)[C@H]([C@@H](C)O)NC(=O)[C@@H](Cc2ccccc2)NC(=O)[C@H](CCN)NC1=O)[C@@H](C)O ({Heptanoyl(6-Me)}-[Dab]T[dDab][Dab][Dab][dF]T[Dab][Dab]T; lactam 4-C)
result: > 500 µg/mL

molecule: CC(C)CCCCC(=O)N[C@@H](CCN)C(=O)N[C@H](C(=O)N[C@@H](CCN)C(=O)N[C@H]1CCNC(=O)[C@H]([C@@H](C)O)NC(=O)[C@H](CCN)NC(=O)[C@H](CCN)NC(=O)[C@H]([C@@H](C)O)NC(=O)[C@@H](Cc2ccccc2)NC(=O)[C@H](CCN)NC1=O)[C@@H](C)O ({Heptanoyl(6-Me)}-[Dab]T[Dab][Dab][Dab][dF]T[Dab][Dab]T; lactam 4-C)
result: > 500 µg/mL

molecule: CC(C)CCCCC(=O)N[C@@H](CCN)C(=O)N[C@H](C(=O)N[C@H](CO)C(=O)N[C@H]1CCNC(=O)[C@H]([C@@H](C)O)NC(=O)[C@H](CCCN)NC(=O)[C@H](CCN)NC(=O)[C@H]([C@@H](C)O)NC(=O)[C@@H](Cc2ccccc2)NC(=O)[C@H](CCN)NC1=O)[C@@H](C)O ({Heptanoyl(6-Me)}-[Dab]T[dS][Dab][Dab][dF]T[Dab][Orn]T; lactam 4-C)
result: > 500 µg/mL
